Reported values of drug sensitivity score for individual entries
Tested on: ZR-75-1
assay.procedure: drug sensitivity score (DSS) (DSS (dimensionless)); higher = more sensitive; extreme values may be limits of the assay
test.settings: 4-OH-tamoxifen in medium 0 µM; 72 h
observed.property: drug sensitivity score

compound	observed.property	test.value
NC(=O)NO [Hydroxyurea]	drug sensitivity score	0
C[C@H]1C[C@@H]2[C@H]([C@@H](O)C[C@@]3(C)[C@H]2CC[C@]3(O)C(=O)CO)[C@@]2(C)C=CC(=O)C=C12	drug sensitivity score	0
COc1cc2c(Oc3ccc(NC(=O)C4(C(=O)Nc5ccc(F)cc5)CC4)cc3F)ccnc2cc1OCCCN1CCOCC1	drug sensitivity score	0
Cn1cc(C2=C(c3cn(C4CCN(Cc5ccccn5)CC4)c4ccccc34)C(=O)NC2=O)c2ccccc21	drug sensitivity score	0
CC(=O)c1c(C)c2cnc(Nc3ccc(N4CCNCC4)cn3)nc2n(C2CCCC2)c1=O	drug sensitivity score	0
CO[C@H]1C[C@@H]2CC[C@@H](C)[C@@](O)(O2)C(=O)C(=O)N2CCCC[C@H]2C(=O)O[C@H]([C@H](C)C[C@@H]2CC[C@@H](OC(=O)C(C)(CO)CO)[C@H](OC)C2)CC(=O)[C@H](C)/C=C(\C)[C@@H](O)[C@@H](OC)C(=O)[C@H](C)C[C@H](C)/C=C/C=C/C=C/1C	drug sensitivity score	8.12
CN(C)C[C@@H]1CCn2cc(c3ccccc32)C2=C(C(=O)NC2=O)c2cn(c3ccccc23)CCO1	drug sensitivity score	4.14

---

Tested on: BT-474 Tam2
assay.procedure: drug sensitivity score (DSS) (DSS (dimensionless)); higher = more sensitive; extreme values may be limits of the assay
test.settings: 4-OH-tamoxifen in medium 1 µM; 72 h

sample.smiles	drug sensitivity score
COc1nc(N)nc2c1ncn2[C@@H]1O[C@H](CO)[C@@H](O)[C@@H]1O	0
Cn1c(=O)n(-c2ccc(C(C)(C)C#N)cc2)c2c3cc(-c4cnc5ccccc5c4)ccc3ncc21	4.69
C[C@]12C=CC(=O)C=C1CC[C@@H]1[C@@H]2[C@@H](O)C[C@@]2(C)[C@H]1CC[C@]2(O)C(=O)CO	0
CCNC(=O)CCC/C=C\C[C@@H]1[C@@H](/C=C/[C@@H](O)CCc2ccccc2)[C@H](O)C[C@@H]1O	0
CC(=O)OC[C@H]1O[C@@H]([S-])[C@H](OC(C)=O)[C@@H](OC(C)=O)[C@@H]1OC(C)=O.CCP(CC)CC.[Au+]	3.68
O=c1[nH]c(=O)n([C@H]2C[C@H](O)[C@@H](CO)O2)cc1F	0
Nc1nc(Cl)nc2c1ncn2[C@H]1C[C@H](O)[C@@H](CO)O1	0
Cn1c(Nc2ccc(C(F)(F)F)cc2)nc2cc(Oc3ccnc(-c4ncc(C(F)(F)F)[nH]4)c3)ccc21	0
S=P(N1CC1)(N1CC1)N1CC1	0
O=C1NC(=O)[C@@H](c2cn3c4c(cccc24)CCC3)[C@@H]1c1c[nH]c2ccccc12	0
CO[C@H]1C[C@@H]2CC[C@@H](C)[C@@](O)(O2)C(=O)C(=O)N2CCCC[C@H]2C(=O)O[C@H]([C@H](C)C[C@@H]2CC[C@@H](OC(=O)C(C)(CO)CO)[C@H](OC)C2)CC(=O)[C@H](C)/C=C(\C)[C@@H](O)[C@@H](OC)C(=O)[C@H](C)C[C@H](C)/C=C/C=C/C=C/1C	0.262
CC(C)n1cnc2c(NCCc3ccc(O)cc3)nc(-c3csc4ccccc34)nc21	5.49
O=C(O)CCCc1ccc(N(CCCl)CCCl)cc1	0
Nc1ncn([C@H]2C[C@H](O)[C@@H](CO)O2)c(=O)n1	0
Nc1nc2[nH]cnc2c(=S)[nH]1	0.61
Cc1cc(Nc2cc(CN3CCOCC3)c3nc(C)c(Cc4ccc(Cl)cc4F)n3n2)n[nH]1	12.8

---

Test system: BT-474 Tam2
assay.procedure: viability inhibition at highest dose (% inhibition); higher = more growth inhibition
test.settings: 4-OH-tamoxifen in medium 1 µM; 72 h
Where a name gives a salt, the structure may show the parent alone.

molecule	assayed.system	viability inhibition at highest dose
Nc1ccccc1NC(=O)c1ccc(CNc2nccc(-c3cccnc3)n2)cc1 [Mocetotinostat (MGCD0103)] (drug 10000 nM)	BT-474 Tam2	83.4
CC[C@]1(O)C[C@@H]2CN(CCc3c([nH]c4ccccc34)[C@@](C(=O)OC)(c3cc4c(cc3OC)N(C)[C@H]3[C@@](O)(C(=O)OC)[C@H](OC(C)=O)[C@]5(CC)C=CCN6CC[C@]43[C@@H]65)C2)C1 [Vinblastine] (drug 1000 nM)	BT-474 Tam2	91.8
COc1cc2/c(=N/c3ccc(Br)cc3F)nc[nH]c2cc1OCC1CCN(C)CC1 [Vandetanib (ZD6474, Zactima)] (drug 1000 nM)	BT-474 Tam2	15
C=CC(=O)Nc1cc2c(Nc3ccc(F)c(Cl)c3)ncnc2cc1OCCCN1CCOCC1 [Canertinib] (drug 10000 nM)	BT-474 Tam2	93.5
Cc1ccc([N+](=O)[O-])cc1S(=O)(=O)N(C)/N=C/c1cnc2ccc(Br)cn12 [PIK-75 (HCl)] (drug 10000 nM)	BT-474 Tam2	98.6
N#Cc1ccc(C(c2ccc(C#N)cc2)n2cncn2)cc1 [Letrozole] (drug 10000 nM)	BT-474 Tam2	-3.68

---

Tested on: MCF-7 Tam1
assay.procedure: viability inhibition at highest dose (% inhibition); higher = more growth inhibition
test.settings: 4-OH-tamoxifen in medium 1 µM; 72 h
Structures can show the parent of a compound that is named as a salt.
Reported values of viability inhibition at highest dose for individual entries

molecule	viability inhibition at highest dose
C[C@]1(c2nc3c(C(N)=O)cccc3[nH]2)CCCN1 [Veliparib (ABT-888)] (drug 10000 nM)	-2.94
COc1ccc(-c2cc3c(C)nc(N)nc3n([C@H]3CC[C@H](OCCO)CC3)c2=O)cn1 (drug 10000 nM)	67.1
CC/C(=C(\c1ccccc1)c1ccc(OCCN(C)C)cc1)c1ccccc1 [Tamoxifen citrate] (drug 10000 nM)	28.6
C=CC[C@@H]1/C=C(\C)C[C@H](C)C[C@H](OC)[C@H]2O[C@@](O)(C(=O)C(=O)N3CCCC[C@H]3C(=O)O[C@H](/C(C)=C/[C@@H]3CC[C@@H](O)[C@H](OC)C3)[C@H](C)[C@@H](O)CC1=O)[C@H](C)C[C@@H]2OC [Tacrolimus (FK 506)] (drug 10000 nM)	18.8
COc1cc(OC2CCN(C)CC2)ccc1Nc1ncc2c(n1)n(C1CCCC1)c(=O)n2C [AZ 3146] (drug 10000 nM)	11.7
O=C(Nc1c[nH]nc1-c1nc2ccc(CN3CCOCC3)cc2[nH]1)NC1CC1 [AT9283] (drug 1000 nM)	-5.75

---

Reported values of viability inhibition at highest dose for individual entries
Tested on: MCF-7
assay.procedure: viability inhibition at highest dose (% inhibition); higher = more growth inhibition
test.settings: 4-OH-tamoxifen in medium 1 µM; 72 h

molecule	viability inhibition at highest dose
N#CCNC(=O)c1ccc(-c2ccnc(Nc3ccc(N4CCOCC4)cc3)n2)cc1 [Momelotinib (CYT-387)] (drug 10000 nM)	69
c1ccc2c(CCNc3ccc(Nc4ccncc4)cc3)c[nH]c2c1 (drug 10000 nM)	22.2
N.N.[Cl][Pt][Cl] [Cisplatin] (drug 10000 nM)	0.697
C=CC(=O)N1CCC[C@@H](n2nc(-c3ccc(Oc4ccccc4)cc3)c3c(N)ncnc32)C1 (drug 1000 nM)	23
COc1c2occc2cc2ccc(=O)oc12 [Methoxsalen] (drug 10000 nM)	1.6
CC[C@@]1(O)C(=O)OCc2c1cc1n(c2=O)Cc2cc3c(CN(C)C)c(O)ccc3nc2-1 [Topotecan] (drug 1000 nM)	23.7
C=CCn1c(=O)c2cnc(Nc3ccc(N4CCN(C)CC4)cc3)nc2n1-c1cccc(C(C)(C)O)n1 [MK-1775] (drug 10000 nM)	35.9
COc1cc2ncnc(Nc3ccc(F)c(Cl)c3)c2cc1OCCCN1CCOCC1 [Gefitinib] (drug 10000 nM)	35.6
CN(C)CCOc1ccc(/C(=C(/CCCl)c2ccccc2)c2ccccc2)cc1 [Toremifene (citrate)] (drug 10000 nM)	69.3
C=CC[C@@H]1/C=C(\C)C[C@H](C)C[C@H](OC)[C@H]2O[C@@](O)(C(=O)C(=O)N3CCCC[C@H]3C(=O)O[C@H](/C(C)=C/[C@@H]3CC[C@@H](O)[C@H](OC)C3)[C@H](C)[C@@H](O)CC1=O)[C@H](C)C[C@@H]2OC [Tacrolimus (FK 506)] (drug 10000 nM)	37.4
CC[C@]1(O)C[C@H]2CN(CCc3c([nH]c4ccccc34)[C@@](C(=O)OC)(c3cc4c(cc3OC)N(C=O)[C@H]3[C@@](O)(C(=O)OC)[C@H](OC(C)=O)[C@]5(CC)C=CCN6CC[C@]43[C@@H]65)C2)C1 [Vincristine] (drug 10000 nM)	54.4
CN1CCc2c(c3ccccc3n2Cc2ccc(C(=O)NO)cc2)C1 [Tubastatin A] (drug 10000 nM)	17.2
Cc1ccc(NC(=O)c2ccc(CN3CCN(C)CC3)cc2)cc1Nc1nccc(-c2cccnc2)n1 [Imatinib] (drug 10000 nM)	11.1
O=C1CN2Cc3c(ccc(Cl)c3Cl)N=C2N1 [Anagrelide] (drug 10000 nM)	2.74
Cn1cncc1[C@@](N)(c1ccc(Cl)cc1)c1ccc2c(c1)c(-c1cccc(Cl)c1)cc(=O)n2C [Tipifarnib (Zarnestra)] (drug 10000 nM)	77.7
CC(=O)Nc1cccc(-n2c(=O)n(C3CC3)c(=O)c3c(Nc4ccc(I)cc4F)n(C)c(=O)c(C)c32)c1 (drug 250 nM)	17.3
Cn1c(=O)n(-c2ccc(C(C)(C)C#N)cc2)c2c3cc(-c4cnc5ccccc5c4)ccc3ncc21 [Dactolisib (NVP-BEZ235)] (drug 1000 nM)	45
COC1=C2C[C@@H](C)C[C@H](OC)[C@H](O)[C@@H](C)/C=C(\C)[C@H](OC(N)=O)[C@@H](OC)/C=C\C=C(/C)C(=O)NC(=CC1=O)C2=O [Geldanamycin] (drug 10000 nM)	78.5
CCc1c2c(nc3ccc(OC(=O)N4CCC(N5CCCCC5)CC4)cc13)-c1cc3c(c(=O)n1C2)COC(=O)[C@]3(O)CC [Irinotecan] (drug 10000 nM)	23.7
O=C(c1cc(Cc2n[nH]c(=O)c3ccccc23)ccc1F)N1CCN(C(=O)C2CC2)CC1 [Olaparib] (drug 10000 nM)	18
O=C(Nc1c[nH]nc1-c1nc2ccc(CN3CCOCC3)cc2[nH]1)NC1CC1 [AT9283] (drug 1000 nM)	-11
Nc1nc(Cl)nc2c1ncn2[C@@H]1O[C@H](CO)[C@@H](O)[C@@H]1F [Clofarabine] (drug 10000 nM)	10.4
Cc1cccc(-c2nn3c(c2-c2ccnc4ccc(C(N)=O)cc24)CCC3)n1 (drug 1000 nM)	17.5
CCOc1cc2ncc(C#N)c(Nc3ccc(OCc4ccccn4)c(Cl)c3)c2cc1NC(=O)/C=C/CN(C)C [Neratinib] (drug 1000 nM)	24.9
CC(=O)Nc1ccc(C(=O)Nc2ccccc2N)cc1 [Tacedinaline (CI-994)] (drug 1000 nM)	-11.9
COc1ncc(-c2ccc3nccc(-c4ccnnc4)c3c2)cc1NS(=O)(=O)c1ccc(F)cc1F (drug 1000 nM)	85
CNNCc1ccc(C(=O)NC(C)C)cc1 [Procarbazine] (drug 10000 nM)	-26.1
